The origin of these recorded values is patent US20220265819A1.

# Target or system: full length pHrodo-labelled monomeric (P301S) 2N4R tau (human, UniProt P10636 1-758, labelled with pHrodo Red Maleimide); also: test concentration or dose not given here
# Sequence (P10636 other isoform, or with tags, fused parts or gaps P301S P301S): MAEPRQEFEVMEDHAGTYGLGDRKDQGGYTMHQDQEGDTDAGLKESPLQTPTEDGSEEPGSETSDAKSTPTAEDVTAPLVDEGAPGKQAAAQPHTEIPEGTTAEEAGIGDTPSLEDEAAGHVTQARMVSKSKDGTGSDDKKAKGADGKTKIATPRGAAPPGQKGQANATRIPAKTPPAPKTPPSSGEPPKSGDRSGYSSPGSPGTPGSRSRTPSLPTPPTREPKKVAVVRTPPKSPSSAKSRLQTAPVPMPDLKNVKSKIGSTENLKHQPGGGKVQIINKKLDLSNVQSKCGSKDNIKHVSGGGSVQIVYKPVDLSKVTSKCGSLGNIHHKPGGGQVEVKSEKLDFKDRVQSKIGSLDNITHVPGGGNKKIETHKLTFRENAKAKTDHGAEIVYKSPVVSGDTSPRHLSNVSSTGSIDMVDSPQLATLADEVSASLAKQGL
# Test protocol: cell-based or functional assay
Assign inhibition of uptake of monomeric tau into human iPSC-derived neurons to each entry below.
Answer in % inhibition, number only, no unit symbol.

Given the entry Clone 27 (VH4Vκ2), humanised variant of clone #28, human IgG1 (antibody, V domains shown, also called VH4VK2; VH4Vk2) VH: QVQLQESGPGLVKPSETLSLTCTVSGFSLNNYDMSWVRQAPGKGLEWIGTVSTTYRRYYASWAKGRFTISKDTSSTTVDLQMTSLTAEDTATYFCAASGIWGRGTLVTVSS VL: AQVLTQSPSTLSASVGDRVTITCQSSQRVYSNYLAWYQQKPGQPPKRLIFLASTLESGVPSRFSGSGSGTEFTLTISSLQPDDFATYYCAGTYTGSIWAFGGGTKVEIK , report its measured inhibition of uptake of monomeric tau into human iPSC-derived neurons.
66.5

And what about the binder Clone 24 (VH3Vκ4), humanised variant of clone #28, human IgG1 (antibody, V domains shown, also called VH3VK4; VH3Vk4) VH: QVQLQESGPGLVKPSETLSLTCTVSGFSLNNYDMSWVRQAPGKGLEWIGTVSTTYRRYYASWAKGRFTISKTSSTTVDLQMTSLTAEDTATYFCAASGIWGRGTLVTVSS VL: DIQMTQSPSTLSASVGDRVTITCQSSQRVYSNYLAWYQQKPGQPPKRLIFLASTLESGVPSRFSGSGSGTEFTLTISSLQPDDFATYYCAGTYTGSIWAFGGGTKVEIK ?
63.3
